Recorded LD50 by entry
assay: acute toxicity (LD50) according to the standard method; conditions: in vivo

Example cases with answers are listed next.
CCCCN(CCCC)C(=O)CC(CP(=O)(c1ccc(OC)cc1)c1ccc(OC)cc1)C(=O)N(CCCC)CCCC (stereo not drawn) = > 100 mg/kg
CCCCN(CCCC)C(=O)CC(C(=O)N(CCCC)CCCC)P(=O)(c1ccc(Cl)cc1)c1ccc(Cl)cc1 (stereo not drawn) = > 100 mg/kg

# input Report LD50 for CCCCN(CCCC)C(=O)CC(C(=O)N(CCCC)CCCC)P(=O)(c1ccccc1)c1ccccc1 (stereo not drawn) please.
# output > 100 mg/kg

---

Tested on: rat cortical synaptosomes
Assay: glutamate-induced 45Ca2+ uptake into rat cortical synaptosomes (P2-fraction)
Format: cell-based
Conditions: Rattus norvegicus, 5 min; compound at 100 µM; glutamate-stimulated; synaptosomes of newborn Wistar rats; 5 minutes at 37°C; control = 100%; read-out: ^45Ca^2+ uptake (% vs. control)
Excerpt: Neuroprotective action of the synthesized compounds was studied in P2-fraction of the rat brain cortex synaptosomes as an in vitro convenient model for evaluation of the ability of various compounds to influence calcium uptake into the nerve endings. In the present invention, the applicant used the method of detecting the uptake of ^45Ca^2+ into rat cortical synaptosomes when stimulated with glutamic acid. […]
Recorded activity at 100 µM by entry
Respond with the figure and its unit, in that order.

Example cases with answers are listed next.
CCCCN(CCCC)C(=O)CP(=O)(c1ccccc1)c1ccccc1 [Compound 16, reference compound] = 96.2%
CCN(CC)C(=O)CP(=O)(c1ccccc1)c1ccccc1 [Compound 17, reference compound] = 95.4%
CCP(=O)(CC)C(CC(=O)O)C(=O)O (stereo not drawn) [Compound 13, 2-(Diethylphosphinoyl)succinic acid, reference compound] = 120%
CCN(CC)C(=O)CC(CP(=O)(c1ccccc1)c1ccccc1)C(=O)N(CC)CC (stereo not drawn) [Compound 10] = 63.8%
CCCCN(CCCC)C(=O)CC(CP(=O)(c1cc(C)ccc1C)c1cc(C)ccc1C)C(=O)N(CCCC)CCCC (stereo not drawn) [Compound 9] = 4.9%

# input Report activity at 100 µM for CN(C)c1ccc(P(=O)(c2ccc(N(C)C)cc2)C(CC(=O)O)C(=O)O)cc1 (stereo not drawn) [Compound 11, reference compound] please.
# output 117%

---

Tested on: rat cortical synaptosomes
Assay: glutamate-induced 45Ca2+ uptake into rat cortical synaptosomes (P2-fraction)
Format: cell-based
Settings: Rattus norvegicus, 5 min; compound at 100 µM; glutamate-stimulated; synaptosomes of newborn Wistar rats; 5 minutes at 37°C; control = 100%; read-out: ^45Ca^2+ uptake (% vs. control)
Text: Neuroprotective action of the synthesized compounds was studied in P2-fraction of the rat brain cortex synaptosomes as an in vitro convenient model for evaluation of the ability of various compounds to influence calcium uptake into the nerve endings. In the present invention, the applicant used the method of detecting the uptake of ^45Ca^2+ into rat cortical synaptosomes when stimulated with glutamic acid. […]
Rule: measured activity at 100 µM below 8% gets YES; anything equal to or greater than 8% gets NO.

CCCCN(CCCC)C(=O)CC(C(=O)N(CCCC)CCCC)P(=O)(c1ccc(OC)cc1)c1ccc(OC)cc1 (stereo not shown) [Compound 6] = YES
CCCCN(CCCC)C(=O)CC(C(=O)N(CCCC)CCCC)P(=O)(c1ccc(Cl)cc1)c1ccc(Cl)cc1 (stereo not shown) [Compound 5] = NO
CCCCN(CCCC)C(=O)CC(C(=O)N(CCCC)CCCC)P(=O)(c1cc(C)ccc1C)c1cc(C)ccc1C (stereo not shown) [Compound 3] = YES
CCCCN(CCCC)C(=O)CC(C(=O)N(CCCC)CCCC)P(=O)(c1ccc(N(C)C)cc1)c1ccc(N(C)C)cc1 (stereo not shown) [Compound 4] = YES

# input Is activity at 100 µM of Cc1ccc(C)c(P(=O)(c2cc(C)ccc2C)C(CC(=O)O)C(=O)O)c1 (stereo not shown) [Compound 12, reference compound] strictly below 8%?
# output NO

# input Is activity at 100 µM of CCCCN(CCCC)C(=O)CC(C(=O)N(CCCC)CCCC)P(=O)(CCCC)CCCC (stereo not shown) [Compound 7] strictly below 8%?
# output YES

# input Is activity at 100 µM of CCN(CC)CC(C(=O)N(CC)CC)P(=O)(c1ccccc1)c1ccccc1 (stereo not shown) [Compound 18, reference compound] strictly below 8%?
# output NO
